B1: F1*; the commonest letter at each place (parent)
chain: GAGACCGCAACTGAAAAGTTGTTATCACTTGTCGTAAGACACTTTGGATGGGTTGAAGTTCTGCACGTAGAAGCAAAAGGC

- Variants of: B1
- measurement_protocol: fraction ligated after 30 min (ligated reads / total reads); higher = more ligase activity
- run_conditions: with F1*sub RNA substrate (template-directed ligation), 42 °C
Outcome: 1 for fraction ligated of at least 0.8; -1 for anything lower.

G34T G46T	-1
G50C G55T	-1
T29G A36C	1
A24G C28T	-1
T25C A48C	-1
T30G G31C T32G A39C C40G A41C	1
C33T G34A	1
T32C C40G	-1

hey, is fraction ligated for this one >= 0.8? G55T A56G A57T
-1

hey, is fraction ligated for this one >= 0.8? G46C A48T
-1

hey, is fraction ligated for this one >= 0.8? T35G G38C
1

hey, is fraction ligated for this one >= 0.8? C40G T49A
-1

hey, is fraction ligated for this one >= 0.8? A48C T49C
-1

hey, is fraction ligated for this one >= 0.8? T29G A37G
1
